System: TF1 JAK2 V617F STAT5 reporter
Measurement Protocol: Cellular TF1 STAT5 assay (luciferase reporter), JAK2 V617F
Type: cell-based
Condition Summary: TF1 JAK2 V617F, read-out: Cell PD TF1 V617F STAT5 (IC50)
Assignment: determine reported IC50 for the given compounds.

**Query** Return reported IC50; argument: CNC(=O)c1nnc(NC(=O)C2CC2)cc1Nc1cccc(-c2ccc(C(=O)N(C)Cc3cc(C#N)ccn3)nc2C2CC2)c1OC
**Result** 5000 to 100000 nM

**Query** Return reported IC50; argument: CNC(=O)c1nnc(NC(=O)C2CC2)cc1Nc1cccc(-c2ccc(C(=O)N(C)[C@H](C)c3ccn(C)n3)nc2)c1OC (single isomer, unassigned)
**Result** 500 to 5000 nM

**Query** Return reported IC50; argument: CNC(=O)c1nnc(NC(=O)C2CC2)cc1Nc1cccc(-c2ccc(C(=O)N(C)Cc3cnn(C)c3)nc2)c1OC
**Result** 50 to 500 nM

**Query** Return reported IC50; argument: CNC(=O)c1nnc(NC(=O)C2CC2)cc1Nc1cccc(-c2ccc(C(=O)N(C)CC3=NO[C@@H]4CCCC[C@H]34)nc2)c1OC (single isomer, unassigned)
**Result** 50 to 500 nM

**Query** Return reported IC50; argument: CNC(=O)c1nnc(NC(=O)C2CC2)cc1Nc1cccc(-c2ccc(C(=O)N(C)Cc3ccn(C)n3)c(C(F)(F)F)c2)c1OC
**Result** 500 to 5000 nM

**Query** Return reported IC50; argument: CNC(=O)c1nnc(NC(=O)C2CC2)cc1Nc1ccc(C)c(-c2cnc(C(=O)N(C)Cc3cc(C#N)ccn3)c(F)c2)c1OC
**Result** 50 to 500 nM
